- experiment: physchem
- conditionDetails: simulated gastric fluid, ST-246 Solubility
quantityName: solubility (µg/mL)
The response must be a number in µg/mL with no trailing unit.

Provide only the value of recorded solubility for O=C(NN1C(=O)[C@@H]2C3C=CC(C4CC43)[C@@H]2C1=O)c1ccc(C(F)(F)F)cc1 (stereo partly shown) [Example 1]
37.5

###

EC50: recorded values
- System: monkeypox virus (Zaire (V79-1-005-scab))
- experiment: microbe, parasite or virus in culture
- Format: cell-based
- conditionDetails: read-out: Monkeypox EC50

Provide only the value of recorded EC50 for O=C(NN1C(=O)[C@@H]2C3CCC(C4CC43)[C@@H]2C1=O)c1ccc(Br)cc1 (some centres unmarked)
< 500 nM

Provide only the value of recorded EC50 for O=C(NN1C(=O)[C@@H]2C3C=CC(C4CC43)[C@@H]2C1=O)c1ccc(Br)cc1 (some centres unmarked)
< 500 nM

Provide only the value of recorded EC50 for O=C(NN1C(=O)[C@@H]2C3C=CC(C4CC43)[C@@H]2C1=O)c1ccncc1 (some centres unmarked)
< 500 nM

Provide only the value of recorded EC50 for O=C1[C@@H]2C3C=CC(C4CC43)[C@@H]2C(=O)N1NC(=O)C12CC3CC(CC(C3)C1)C2 (some centres unmarked)
< 500 nM

Provide only the value of recorded EC50 for O=C(NN1C(=O)[C@@H]2C3C=CC(C4CC43)[C@@H]2C1=O)c1ccc(C(F)(F)F)cc1 (some centres unmarked)
< 500 nM

###

- experiment: physchem
- conditionDetails: water, ST-246 Solubility
quantityName: solubility (µg/mL)
The response must be a number in µg/mL with no trailing unit.

Provide only the value of recorded solubility for O=C(NN1C(=O)[C@@H]2C3C=CC(C4CC43)[C@@H]2C1=O)c1ccc(C(F)(F)F)cc1 (stereo partly shown)
26

###

- experiment: physchem
- conditionDetails: organic solvent or mixture, Solubility in organic solvents
quantityName: solubility (mg/mL)
The response must be a number in mg/mL with no trailing unit.

Provide only the value of recorded solubility for O=C(NN1C(=O)[C@@H]2C3C=CC(C4CC43)[C@@H]2C1=O)c1ccc(C(F)(F)F)cc1 (stereo partly shown)
60

###

- experiment: physchem
- conditionDetails: aqueous with cosolvent or surfactant or cyclodextrin, ST-246 Solubility
quantityName: solubility (µg/mL)
The response must be a number in µg/mL with no trailing unit.

Provide only the value of recorded solubility for O=C(NN1C(=O)[C@@H]2C3C=CC(C4CC43)[C@@H]2C1=O)c1ccc(C(F)(F)F)cc1 (stereo partly shown)
68.7

The measured values listed here are drawn from patent US8039504B2.
